Quick list: pIC50 per entry.
Test system: KO-52 cells
Test: Proliferation assay (spheroid confluence, 8 days), KO-52 control cell line
Format: cell-based, human
Conditions: Homo sapiens, read-out: spheroid assay_KO-52 IC50
pIC50: −log10 of the molar value.
measurement-kind: pIC50

compound	measurement-kind	relation-symbol	meas-value
CCN(C(=O)c1cc(F)ccc1-n1cc(CC2CN(C(C(C)C)[C@H]3C[C@@H](N4C[C@H]5CN(C(C)=O)C[C@@H]5C4)C3)C2)c2c(C)cncc21)C(C)C (mixture of isomers) [Compound 38a]	pIC50	=	6.10
Cc1cncc2c1c(C[C@@H]1CCN(C[C@@H]3CCNC(=O)CC3)C1)cn2-c1ccc(F)cc1C(=O)N1[C@H](C)CC[C@H]1C (single isomer, unassigned) [Compound 352b]	pIC50	<	4.82
Cc1cncc2c1c(C[C@@H]1CCN(CC3CCC(O)CC3)C1)cn2-c1ccc(F)cc1C(=O)N(C)C(C)C (some centres unmarked) [Compound 205]	pIC50	=	5.60
COCCN(C)CCCC(C(C)C)N1CC[C@@H](Cc2cn(-c3ccc(F)cc3C(=O)N(C)C(C)C)c3cncc(Cl)c23)C1 (some centres unmarked) [Compound 3]	pIC50	=	5.96
CNC(=O)[C@H]1CC[C@H](CN2CCC(Cc3cn(-c4ccc(F)cc4C(=O)N(C)C(C)C)c4cncc(C)c34)C2)CC1 (single isomer, unassigned) [Compound 70]	pIC50	=	5.07
CNC(=O)N1CCC(CN2CC[C@H](Cc3cn(-c4ccc(F)cc4C(=O)N(C)C(C)C)c4cncc(C)c34)C2)CC1 (single isomer, unassigned) [Compound 101]	pIC50	=	5.51
Cc1cncc2c1c(C[C@H]1CCN(CC3CCOCC3)C1)cn2-c1ccc(F)cc1C(=O)N(C)C(C)C (single isomer, unassigned) [Compound 43]	pIC50	=	5.48
COCCN(C)CCCC(C(C)C)N1CC[C@@H](Cc2cn(-c3ccc(F)cc3C(=O)N(C)C(C)C)c3cncc(C)c23)C1 (some centres unmarked) [Compound 1]	pIC50	=	5.12
Cc1cncc2c1c(C[C@H]1CCN(C[C@H]3CC[C@H](NS(C)(=O)=O)CC3)C1)cn2-c1ccc(F)cc1C(=O)N(C)C(C)C (single isomer, unassigned) [Compound 69]	pIC50	=	4.96
CCN(C(=O)c1cc(F)ccc1-n1cc(CC2CN(C(C(C)C)[C@H]3C[C@@H](N4CCN(C(C)=O)CC4)C3)C2)c2c(C)cncc21)C(C)C (some centres unmarked) [Compound 35a]	pIC50	=	5.82
CC(=O)N1C[C@@H]2CN([C@H]3C[C@@H]([C@@H](C(C)C)N4CC(Cc5cn(-c6ccc(F)cc6C(=O)N(C)C(C)C)c6cncc(Cl)c56)C4)C3)C[C@H]2C1 (single isomer, unassigned) [Compound 39a]	pIC50	<	4.82

###

Target: menin/MLL (terbium chelate-labeled menin, FITC-MBM1 peptide) (Homo sapiens, UniProt O00255, T541A)
Construct: Menin (a.a 1-610-6xhis tag, 2.3 mg/mL in 20 mM Hepes)
Sequence (O00255 with tags, fused parts or gaps T541A): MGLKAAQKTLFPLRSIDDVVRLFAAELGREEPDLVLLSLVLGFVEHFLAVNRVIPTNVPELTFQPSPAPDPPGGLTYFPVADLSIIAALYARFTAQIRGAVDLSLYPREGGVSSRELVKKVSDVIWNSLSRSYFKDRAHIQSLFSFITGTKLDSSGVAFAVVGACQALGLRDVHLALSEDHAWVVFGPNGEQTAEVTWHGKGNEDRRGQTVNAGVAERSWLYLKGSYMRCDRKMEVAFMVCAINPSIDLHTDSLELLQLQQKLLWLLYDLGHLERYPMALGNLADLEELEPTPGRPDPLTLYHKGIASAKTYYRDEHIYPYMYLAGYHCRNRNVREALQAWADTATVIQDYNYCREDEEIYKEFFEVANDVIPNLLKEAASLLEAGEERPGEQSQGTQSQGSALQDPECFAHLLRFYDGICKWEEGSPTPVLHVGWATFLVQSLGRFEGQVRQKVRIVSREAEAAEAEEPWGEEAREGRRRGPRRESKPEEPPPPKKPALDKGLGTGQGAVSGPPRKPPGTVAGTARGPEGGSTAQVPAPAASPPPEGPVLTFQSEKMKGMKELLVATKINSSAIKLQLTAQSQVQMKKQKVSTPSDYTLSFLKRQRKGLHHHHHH
Test: Menin/MLL homogenous time-resolved fluorescence (HTRF) assay
Conditions: 30 min incubation
Protocol: 1) Menin/MLL Homogenous Time-Resolved Fluorescence (HTRF) Assay […] Compound potencies were determined by first calculating % inhibition at each compound concentration according to equation 1: […] Where LC and HC are the HTRF values of the assay in the presence or absence of a saturating concentration of a compound that competes with FITC-MBM1 for binding to menin, and HTRF^compound is the measured HTRF value in the presence of the test compound. […]

compound	unit-descriptor	IC50
Cc1cncc2c1c(CC1CCN(CC3CCN(C(=O)C(C)C)CC3)C1)cn2-c1ccc(F)cc1C(=O)N1CC(O)CC1C (stereo not drawn) [Compound 332]	nM	0.13
CC(=O)N1CCC(CN2CCC(Cc3cn(-c4ccc(F)cc4C(=O)N(C)C(C)C)c4cncc(C)c34)C2C)CC1 (stereo not drawn) [Compound 228]	nM	0.061
Cc1cncc2c1c(CC1CCN(CC3CCN(C(=O)C(C)(C)C#N)CC3)C1)cn2-c1ccc(F)cc1C(=O)N(C)C(C)C (single isomer, unassigned) [Compound 126]	nM	0.091
COCCN(C)CCCC(C(C)C)N1CCC(Cc2cn(-c3ccc(F)cc3C(=O)N(C)C(C)C)c3cncc(F)c23)C1 (stereo not drawn) [Compound 6]	nM	0.288
Cc1cncc2c1c(C[C@H]1CCN([C@H](C)C3CCOCC3)C1)cn2-c1ccc(F)cc1[S@](=N)(=O)C(C)C (single isomer, unassigned) [Compound 181a]	nM	0.066
CC(=O)N1CCN([C@H]2C[C@@H]([C@@H](C(C)C)N3CC(Cc4cn(-c5ccc(F)cc5C(=O)N(C)C(C)C)c5cncc(C)c45)C3)C2)CC1 (single isomer, unassigned) [Compound 32a]	nM	0.062

###

Catalogue of pIC50 readings, one per entry.
Biological target: menin/MLL (terbium chelate-labeled menin, FITC-MBM1 peptide) (Homo sapiens, UniProt O00255, T541A)
Construct: Menin (a.a 1-610-6xhis tag, 2.3 mg/mL in 20 mM Hepes)
Assay: Menin/MLL homogenous time-resolved fluorescence (HTRF) assay
Settings: 30 min incubation
pIC50: −log10 of the molar value.
measurement-kind: pIC50

compound	measurement-kind	meas-value
CC(=O)N1CCC(CN2CC[C@@H](Cc3cn(-c4ccc(F)cc4C(=O)N(C)C(C)C)c4cncc(C)c34)C2)CC1 (single isomer, unassigned) [Compound 50]	pIC50	10.10
Cc1cncc2c1c(CC1CCN(CC3CCN(C(=O)CC4CS(=O)(=O)C4)CC3)C1)cn2-c1ccc(F)cc1C(=O)N(C)C(C)C (single isomer, unassigned) [Compound 108]	pIC50	9.79
Cc1cncc2c1c(C[C@H]1CCN([C@H](C)C3CCOCC3)C1)cn2-c1ccc(F)cc1[S@@](=N)(=O)C(C)C (single isomer, unassigned) [Compound 183a]	pIC50	9.43
CC(=O)N1CCC(CN2C[C@H](Cc3cn(-c4ccc(F)cc4C(=O)N(C)C(C)C)c4cncc(C)c34)C[C@@H]2C)CC1	pIC50	8.92
CNC(=O)[C@H]1CC[C@H](CN2CC(Cc3cn(-c4ccc(F)cc4C(=O)N(C)C(C)C)c4cncc(C)c34)C2)CC1	pIC50	10.47
Cc1cncc2c1c(C[C@@H]1CCN(C[C@@H]3CCNC(=O)CC3)C1)cn2-c1ccc(F)cc1C(=O)N1CCC2CC21 (single isomer, unassigned) [Compound 351b]	pIC50	9.59

###

Biological target: menin/MLL (terbium chelate-labeled menin, FITC-MBM1 peptide) (Homo sapiens, UniProt O00255, T541A)
Construct: Menin (a.a 1-610-6xhis tag, 2.3 mg/mL in 20 mM Hepes)
Experiment: Menin/MLL homogenous time-resolved fluorescence (HTRF) assay
Details: 30 min incubation
Method: 1) Menin/MLL Homogenous Time-Resolved Fluorescence (HTRF) Assay […] Compound potencies were determined by first calculating % inhibition at each compound concentration according to equation 1: […] Where LC and HC are the HTRF values of the assay in the presence or absence of a saturating concentration of a compound that competes with FITC-MBM1 for binding to menin, and HTRF^compound is the measured HTRF value in the presence of the test compound. […]
pIC50: −log10 of the molar value.
Item-by-item account of pIC50

molecule	pIC50
CC[C@@H]([C@H]1C[C@H](N2C[C@H]3CN(C(C)=O)C[C@@H]3C2)C1)N1CC[C@H](Cc2cn(-c3ccc(F)cc3C(=O)N(C)C(C)C)c3cncc(Cl)c23)C1 (single isomer, unassigned) [Compound 27d]	10.89
COC[C@H](C1CCCCO1)N1CC[C@@H](Cc2cn(-c3ccc(F)cc3C(=O)N(C)C(C)C)c3cncc(C)c23)C1 (single isomer, unassigned) [Compound 165b]	10.15
Cc1cncc2c1c(C=C1CCN(CC3CCOCC3)C1)cn2-c1ccc(F)cc1C(=O)N(C)C(C)C (single isomer, unassigned) [Compound 523b]	9.91
Cc1cncc2c1c(CC1CN([C@@H](C(C)C)[C@H]3C[C@H](N4CCC(S(C)(=O)=O)CC4)C3)C1)cn2-c1ccc(F)cc1C(=O)N(C)C(C)C [Compound 33b]	10.52
Cc1cncc2c1c(C[C@@H]1CCN([C@H](CO)C3CCCOC3)C1)cn2-c1ccc(F)cc1C(=O)N(C)C(C)C (single isomer, unassigned) [Compound 198b]	10.07
Cc1cncc2c1c(C[C@@H]1CCN(CC3CCNC(=O)C3)C1)cn2-c1ccc(F)cc1C(=O)N(C)C(C)C (mixture of isomers)	9.94
CC(=O)N1CCC(C)(CN2CC(Cc3cn(-c4ccc(F)cc4C(=O)N(C)C(C)C)c4cncc(C)c34)C2)CC1	10.12
CC[C@H]([C@H]1C[C@@H](N2C[C@H]3CN(C(C)=O)C[C@@H]3C2)C1)N1CC[C@H](Cc2cn(-c3ccc(F)cc3C(=O)N(C)C(C)C)c3cncc(Cl)c23)C1 (single isomer, unassigned) [Compound 27a]	10.92
COC(=O)N1CCC(CN2CC[C@@H](Cc3cn(-c4ccc(F)cc4C(=O)N(CCO)C(C)C)c4cncc(C)c34)C2)CC1	9.65
CNC(=O)[C@H]1CC[C@H]([C@H](C)N2CC(Cc3cn(-c4ccc(F)cc4C(=O)N(C)C(C)C)c4cncc(C)c34)C2)CC1 (single isomer, unassigned)	9.72
Cc1cncc2c1c(C[C@@H]1CCN(CC3CCN(C(=O)N(C)C)CC3)C1)cn2-c1ccc(F)cc1C(=O)N(C)C(C)C	10.43
